# Tested System: full-length beta-Catenin (Uniprot ID P35222) (Homo sapiens)
# Construct: 10 nM full-length beta-Catenin (Uniprot ID P35222)
# Sequence (P35222 whole entry): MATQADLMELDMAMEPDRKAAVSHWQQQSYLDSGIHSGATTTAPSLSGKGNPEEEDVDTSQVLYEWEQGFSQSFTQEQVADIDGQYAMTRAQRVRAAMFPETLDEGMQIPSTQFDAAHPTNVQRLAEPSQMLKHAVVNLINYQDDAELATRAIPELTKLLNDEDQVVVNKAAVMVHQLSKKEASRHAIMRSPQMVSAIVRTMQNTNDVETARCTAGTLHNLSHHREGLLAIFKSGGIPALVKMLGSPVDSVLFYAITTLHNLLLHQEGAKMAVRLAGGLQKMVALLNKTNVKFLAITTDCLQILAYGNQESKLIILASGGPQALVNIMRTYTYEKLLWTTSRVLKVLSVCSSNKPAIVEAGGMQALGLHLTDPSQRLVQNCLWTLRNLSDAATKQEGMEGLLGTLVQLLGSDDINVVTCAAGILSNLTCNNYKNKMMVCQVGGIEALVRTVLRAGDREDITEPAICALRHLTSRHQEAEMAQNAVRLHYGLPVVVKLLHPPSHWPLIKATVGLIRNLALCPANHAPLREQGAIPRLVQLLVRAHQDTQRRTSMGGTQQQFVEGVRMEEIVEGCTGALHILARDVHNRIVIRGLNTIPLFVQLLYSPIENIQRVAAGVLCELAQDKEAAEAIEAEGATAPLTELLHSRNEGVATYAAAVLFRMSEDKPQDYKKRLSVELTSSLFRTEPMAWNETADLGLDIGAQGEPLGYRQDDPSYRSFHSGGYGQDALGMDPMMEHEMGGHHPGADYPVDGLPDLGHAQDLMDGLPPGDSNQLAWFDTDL
# Procedure Text: Fluorescence polarization IC50 (beta-catenin / 5FAM-TCF4 10-53 competition)
# Type: binding
# Condition Context: fluorescence polarization; read-out: beta-Catenin FP IC50
Property Name: pIC50
Recall that pIC50 is obtained by taking minus log10 of the concentration measured in molar.

Need pIC50 of CC(C)COC(=O)N1CCC[C@]12CC=CCCCC1(CCCC=CCCCOC(=O)N3CC[C@@](C(=O)N[C@@H](Cc4ccsc4)C(=O)N[C@@H](Cc4csc5ccccc45)C(=O)N[C@@H](Cc4c[nH]cn4)C(N)=O)(C3)NC(=O)[C@H](CCC(N)=O)NC(=O)[C@H](Cc3ccccc3)NC(=O)[C@H](C)NC(=O)[C@H](C)NC(=O)[C@H](CC(=O)O)NC(=O)[C@H](CC(=O)O)NC1=O)NC(=O)[C@H](CC(C)(C)C)NC(=O)[C@H](CC(=O)O)NC2=O (some centres unmarked) , thanks.
6.94

Query: pIC50; subject: CC(=O)N1CCC[C@]12CCCCC[C@@](C)(C(=O)N[C@@H](CC(=O)O)C(=O)N[C@@H](CC(=O)O)C(=O)N[C@@H](C)C(=O)N[C@@H](C)C(=O)N[C@@H](Cc1ccccc1)C(=O)N[C@@H](CC(C)C)C(=O)NC(C)(C)C(=O)N[C@@H](Cc1ccsc1)C(=O)N[C@@H](Cc1csc3ccccc13)C(=O)N[C@@H](CCC(N)=O)C(N)=O)NC(=O)[C@H](CC(C)(C)C)NC(=O)[C@H](CC(=O)O)NC2=O
5.01

// lookup pIC50 for CC(=O)N1CCC[C@]12CC=CCCCC1(CCCC=CCCCOC(=O)N3CC[C@@](C(=O)N[C@@H](Cc4ccccc4Cl)C(=O)N[C@@H](Cc4csc5ccccc45)C(=O)N[C@@H](C(N)=O)[C@H](C)O)(C3)NC(=O)[C@H](CC(C)C)NC(=O)[C@H](Cc3ccccc3)NC(=O)[C@H](C)NC(=O)[C@H](C)NC(=O)[C@H](CC(=O)O)NC(=O)[C@H](CC(=O)O)NC1=O)NC(=O)[C@H](Cc1ccccc1)NC(=O)[C@H](CC(=O)O)NC2=O (some centres unmarked)
7.48

// returns reported pIC50 for input CC(C)COC(=O)N1CCC[C@]12CC=CCCCC1(CCCC=CCCCOC(=O)N3CC[C@@](C(=O)N[C@@H](Cc4ccccc4Cl)C(=O)N[C@@H](Cc4csc5ccccc45)C(=O)N[C@@H](C)C(N)=O)(C3)NC(=O)[C@H](CC(C)C)NC(=O)[C@H](Cc3ccccc3)NC(=O)[C@H](C)NC(=O)[C@H](C)NC(=O)[C@H](Cc3cccc(C(=O)O)c3)NC(=O)[C@H](CC(=O)O)NC1=O)NC(=O)[C@H](CC(C)(C)C)NC(=O)[C@H](CC(=O)O)NC2=O (some centres unmarked)
7.19

For the molecule CC(=O)N1CCC[C@]12CC=CCCCC1(CCCC=CCCCOC(=O)N3CC[C@@](C(=O)N[C@@H](Cc4ccccc4Cl)C(=O)N[C@@H](Cc4csc5ccccc45)C(=O)N[C@@H](CO)C(N)=O)(C3)NC(=O)[C@H]([C@@H](C)O)NC(=O)[C@H](Cc3ccccc3)NC(=O)[C@H](C)NC(=O)[C@H](CC(C)C)NC(=O)[C@H](CC(=O)O)NC(=O)[C@H](CC(=O)O)NC1=O)NC(=O)[C@H](CC1CCCCC1)NC(=O)[C@H](CC(=O)O)NC2=O (some centres unmarked) , what pIC50 is on record?
7.92

Reference source for all entries: patent US20240116985A1
